# system tested: h-TGR5 (Homo sapiens, UniProt Q8TDU6)
# Construct: expressed in transfected cells
# Sequence (Q8TDU6 whole entry): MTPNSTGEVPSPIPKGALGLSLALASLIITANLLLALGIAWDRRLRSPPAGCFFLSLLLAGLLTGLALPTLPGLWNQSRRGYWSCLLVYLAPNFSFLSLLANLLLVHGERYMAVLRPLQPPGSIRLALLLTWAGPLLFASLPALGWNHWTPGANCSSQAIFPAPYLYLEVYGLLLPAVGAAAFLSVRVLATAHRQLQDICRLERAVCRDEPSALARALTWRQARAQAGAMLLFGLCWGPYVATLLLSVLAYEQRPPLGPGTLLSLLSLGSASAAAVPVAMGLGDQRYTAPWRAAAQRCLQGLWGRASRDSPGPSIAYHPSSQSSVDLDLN
# assay protocol: TGR5 cAMP Assay using Cisbio cAMP Dynamic2 htrf kit (hTGR5CRE-luc HEK 293 cells)
# Type: cell-based
# experimental setup: h-TGR5 cAMP EC50, Table 1; read-out: cAMP (EC50)
result type: EC50

[[record]]
molecule = "CC(C)(c1ccc(Cl)c(Cl)c1)c1cnc(SCc2c(F)cc(C(N)=O)cc2F)n1-c1ccc(F)cc1"
measured_result = "100 to 1000 nM"

[[record]]
molecule = "CC(C)(c1ccc(Cl)cc1F)c1cnc(SCc2c(F)cccc2Cl)n1-c1ccc(F)cc1"
measured_result = "100 to 1000 nM"

[[record]]
molecule = "COC[C@H]1CCCN1NC(=O)NS(=O)(=O)c1ccc(CSc2ncc(C(C)(C)c3ccc(Cl)c(OC)c3)n2-c2ccc(F)cc2)c(Cl)c1"
measured_result = "100 to 1000 nM"

[[record]]
molecule = "COc1cc(-n2c(C(C)(C)c3ccc(Cl)c(Cl)c3)cnc2SCc2c(F)cc(C(=O)O)cc2Cl)ccc1F"
measured_result = "< 100 nM"

[[record]]
molecule = "COc1cc(C(C)(C)c2cnc(SCc3c(F)cc(C(=O)NCS(=O)(=O)O)cc3F)n2-c2ccc(F)cc2)ccc1Cl"
measured_result = "< 100 nM"

[[record]]
molecule = "CCOC(=O)NS(=O)(=O)c1ccc(CSc2ncc(C(C)(C)c3ccc(S(N)(=O)=O)c(Cl)c3)n2-c2ccc(F)cc2)c(Cl)c1"
measured_result = "< 100 nM"

[[record]]
molecule = "COc1cc(C(C)(C)c2cnc(SCc3c(F)cc(CCCCNC(=N)N)cc3F)n2-c2ccc(F)cc2)ccc1Cl"
measured_result = "< 100 nM"

[[record]]
molecule = "CC(C)(c1ccc(C(F)F)c(F)c1)c1cnc(SCc2ccc(S(=O)(=O)NC(=O)NN3CCCC3)cc2Cl)n1-c1ccc(F)cc1"
measured_result = "100 to 1000 nM"

[[record]]
molecule = "COc1cc(C(C)(C)c2cnc(SCc3c(F)cc(OCCNC(=N)N)cc3F)n2-c2ccc(F)cc2)ccc1F"
measured_result = "< 100 nM"

[[record]]
molecule = "COc1cc(C(C)(C)c2cnc(SCc3ccc(S(=O)(=O)NC(=O)Nc4nccs4)cc3Cl)n2-c2ccc(F)cc2)ccc1Cl"
measured_result = "100 to 1000 nM"

[[record]]
molecule = "CCOC(=O)NS(=O)(=O)c1ccc(CSc2ncc(C(C)(C)c3ccc(OC)c(Cl)c3)n2-c2ccc(F)cc2)c(Cl)c1"
measured_result = "< 100 nM"

[[record]]
molecule = "COc1cc(C(C)(C)c2cnc(SCc3c(F)cc(C(=O)NCCCC(NC(=N)N)C(=O)O)cc3Cl)n2-c2ccc(F)cc2)ccc1Cl (centres unmarked)"
measured_result = "< 100 nM"

[[record]]
molecule = "CC(C)(c1ccc(Cl)c(Cl)c1)c1c(Cl)nc(SCc2ccc(-c3nnn[nH]3)c(Cl)c2)n1-c1ccc(F)cc1"
measured_result = "1000 to 10000 nM"

[[record]]
molecule = "CC(C)(c1ccc(Cl)c(Cl)c1)c1cnc(SCc2ccc(Cl)c(-c3nnn[nH]3)c2)n1-c1ccc(F)cc1"
measured_result = "100 to 1000 nM"

[[record]]
molecule = "COc1cc(C(C)(C)c2cnc(SCc3ccc(S(=O)(=O)NC(=O)N4CCC(O)C4)cc3Cl)n2-c2ccc(F)cc2)ccc1Cl (centres unmarked)"
measured_result = "< 100 nM"

[[record]]
molecule = "COc1ccc(Cc2cnc(SCc3ccc(F)cc3Cl)n2-c2ccc(F)cc2)cc1OC"
measured_result = "< 100 nM"

[[record]]
molecule = "CC(C)(c1ccc(Cl)c(Cl)c1)c1cnc(SCc2ccc(F)c(S(N)(=O)=O)c2)n1-c1ccc(F)cc1"
measured_result = "100 to 1000 nM"

[[record]]
molecule = "COc1cc(C(C)(C)c2cnc(SCc3c(F)cc(C(=O)O)cc3Cl)n2-c2ccc(F)cn2)ccc1Cl"
measured_result = "< 100 nM"

[[record]]
molecule = "CC(C)(c1ccc(S(N)(=O)=O)c(Cl)c1)c1cnc(SCc2ccc(S(=O)(=O)NC(=O)NN3CCOCC3)cc2Cl)n1-c1ccc(F)c(Cl)c1"
measured_result = "100 to 1000 nM"

[[record]]
molecule = "COc1cc(-n2c(C(C)(C)c3ccc(Cl)c(Cl)c3)cnc2SCc2c(F)cc(C(=O)NCS(=O)(=O)O)cc2F)ccc1F"
measured_result = "< 100 nM"


---

# system tested: human TGR5 (h-TGR5) (Homo sapiens, UniProt Q8TDU6)
# Construct: expressed in transfected cells
# Sequence (Q8TDU6 whole entry): as above
# assay protocol: TGR5/CRE-Luciferiase Assay (HEK 293 hTGR5/CRE-Luc cells)
# Assay type: cell-based
# experimental setup: h-TGR5 CRE-Luc EC50, Table 1; read-out: CRE-Luc (EC50)
pEC50: −log10 of the molar value.
Below is a list of entries, each paired with its recorded pEC50 value.
result type: pEC50

[[record]]
compound = "COc1ccc(C(C)(C)c2cnc(CNCc3c(F)cccc3Cl)n2-c2ccc(F)cc2)cc1OC"
measured_result = "> 7.00"

[[record]]
compound = "COc1ccc(C(C)(C)c2cnc(C(=O)N3CCOCC3)n2-c2ccc(F)cc2)cc1OC"
measured_result = "5.00 to 6.00"

[[record]]
compound = "CC(C)NC(=O)N1CCC(CSc2ncc(C(C)(C)c3ccc(F)c(F)c3)n2-c2ccc(F)cc2)CC1"
measured_result = "6.00 to 7.00"

[[record]]
compound = "CC(C)(O)c1cc(CSc2ncc(C(C)(C)c3ccc(Cl)c(Cl)c3)n2-c2ccc(F)cc2)ccc1F"
measured_result = "6.00 to 7.00"

[[record]]
compound = "COc1cc(C(C)(C)c2cnc(NCc3ccc(Cl)cc3F)n2-c2ccc(F)cc2)ccc1Cl"
measured_result = "5.00 to 6.00"

[[record]]
compound = "Fc1ccc(-n2c(Cc3ccc(F)c(F)c3)cnc2SCc2ccc(F)cc2Cl)cc1"
measured_result = "6.00 to 7.00"

[[record]]
compound = "CC(C)(Oc1cc(CSc2ncc(C(C)(C)c3ccc(Cl)c(Cl)c3)n2-c2ccc(F)cc2)ccc1F)C(=O)O"
measured_result = "6.00 to 7.00"

[[record]]
compound = "COc1cc(-n2c(C(C)(C)c3ccc(F)c(C#N)c3)cnc2SCc2c(F)cc(C(=O)O)cc2F)ccc1F"
measured_result = "> 7.00"

[[record]]
compound = "COc1cc(C(C)(C)c2cnc(SCc3c(F)cc(-c4nnn[nH]4)cc3F)n2-c2ccc(F)cc2)ccc1Cl"
measured_result = "> 7.00"

[[record]]
compound = "COc1ccc(C(C)(C)c2cnc(CN(C)c3c(F)cccc3Cl)n2-c2ccc(F)cc2)cc1OC"
measured_result = "> 7.00"

[[record]]
compound = "CCN(CC)CCS(=O)(=O)N1CCC(CSc2ncc(C(C)(C)c3ccc(Cl)c(Cl)c3)n2-c2ccc(F)cc2)CC1"
measured_result = "6.00 to 7.00"

[[record]]
compound = "CC(C)(C)OC(=O)N1CCC(CSc2ncc(C(C)(C)c3ccc(Cl)c(Cl)c3)n2-c2ccc(F)cc2)C1 (centres unmarked)"
measured_result = "6.00 to 7.00"

[[record]]
compound = "CC(C)(c1ccc(Cl)c(Cl)c1)c1cnc(COCc2ccc(F)cc2Cl)n1-c1ccc(F)cc1"
measured_result = "5.00 to 6.00"

[[record]]
compound = "CC(C)(c1ccc(Cl)c(Cl)c1)c1cnc(CCc2ccc(S(=O)(=O)NC(=O)NN3CCCC3)cc2Cl)n1-c1ccc(F)cc1"
measured_result = "5.00 to 6.00"

[[record]]
compound = "CC(C)(c1ccc(Cl)c(Cl)c1)c1cnc(SCc2cc(S(N)(=O)=O)ccc2Cl)n1-c1ccc(F)cc1"
measured_result = "6.00 to 7.00"

[[record]]
compound = "CC(C)(c1ccc(Cl)c(Cl)c1)c1cnc(S(=O)(=O)Cc2ccc(F)cc2Cl)n1-c1ccc(F)cc1"
measured_result = "5.00 to 6.00"

[[record]]
compound = "COc1ccc(C(C)(C)c2cnc(SCc3ccc(Cl)c(C(=O)O)c3)n2-c2ccc(F)cc2)cc1Cl"
measured_result = "6.00 to 7.00"

[[record]]
compound = "CC(C)(c1ccc(F)c(C#N)c1)c1cnc(SCc2c(F)cc(C(=O)O)cc2F)n1-c1ccc(F)cc1"
measured_result = "> 7.00"

[[record]]
compound = "COc1cc(C(C)(C)c2cnc(SCc3c(F)cc(N)cc3Cl)n2-c2ccc(F)cc2)ccc1Cl"
measured_result = "> 7.00"

[[record]]
compound = "COc1cc(C(C)(C)c2cnc(SCc3c(F)cc(OCCCNC(=N)N)cc3Cl)n2-c2ccc(F)cc2)ccc1Cl"
measured_result = "> 7.00"

[[record]]
compound = "CC(C)(c1ccc(Cl)c(Cl)c1)c1cnc(SCc2c(Cl)cccc2C(=O)O)n1-c1ccc(F)cc1"
measured_result = "6.00 to 7.00"

[[record]]
compound = "COc1cc(C(C)(C)c2cnc(SCc3ccc(S(=O)(=O)NC(=O)NC(C)C)cc3Cl)n2-c2ccc(F)cc2)ccc1Cl"
measured_result = "6.00 to 7.00"

[[record]]
compound = "COc1ccc(C(C)(C)c2cnc(SCc3c(F)cc(C(=O)O)cc3F)n2-c2ccc(F)cc2)cc1Cl"
measured_result = "> 7.00"

